From: the supplement of paper PMC10567573

B1: SPSB1 (parent)
chain: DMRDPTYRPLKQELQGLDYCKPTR

Variants of: B1
Protocol Notes: protein stability index of a GFP-peptide fusion (GPS, HEK-293T) (PSI 1-6); higher = more stable;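 further: lentivirally expressed fusions sorted by FACS into six bins by GFP to DsRed ratio, PSI derived from sequencing read proportions per bin multiplied by bin number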
Test Conditions: c terminus: a fixed tail appended
# binarize protein stability index: threshold 3 inclusive, high side 1.0, low side 0.0

Reference set, count: 10
>>> print(df.to_string())
   alteration  classification
0        L14A             1.0
1        Q15D             0.0
2        D18W             0.0
3         D4Y             0.0
4        L10H             1.0
5        K21C             0.0
6        K21N             0.0
7        P22W             0.0
8         D4H             0.0
9        Y19E             1.0

// inclusive: protein stability index at least 3? input: Y7W
1.0

What do we get for D18V ?
1.0
